Field: melting point. Provide a value for each of the molecules that follow.

Challenge: Item under review: CCN1CCN(CCN2CC[C@H](NC(=O)c3cc(Cl)c(N)cc3OC)[C@H](OC(=O)N3CCCC3)C2)C1=O (relative stereo) . Reported melting point?
Response given: 214 °C

Challenge: Item under review: COCCOc1cc(C)nc(NC(=O)NS(=O)(=O)c2ccccc2Cl)n1 . Reported melting point?
Response given: 130 to 140 °C

Challenge: Item under review: CCN1CCc2ccc(Nc3ncc(Cl)c(N[C@H]4CCCC[C@H]4C(=O)NC)n3)cc2CC1 (relative stereo) . Reported melting point?
Response given: 143 °C

Challenge: Item under review: O=C(Nc1ccccc1)OC1C=CC2COC1O2 (stereo not drawn) . Reported melting point?
Response given: 107 to 109 °C

Challenge: Item under review: CCOC1OC(COC(C)=O)C(OC2OC(COC(C)=O)C(OC(C)=O)C(OC(C)=O)C2OC(C)=O)C(OC(C)=O)C1OC(C)=O (stereo not drawn) . Reported melting point?
Response given: 133 to 135 °C

Provide each entry's melting point from the list below.
1. COC1(N2CCCC2)C=CC=C(c2cnc3[nH]cc(C(=O)C(C)(C)C)c3n2)C1 (stereo not drawn)
2. c1ccc(-n2c(Cn3ccnc3)nc3ccccc32)cc1
3. CN1C(=O)CC[C@]2(C)c3ccc(Sc4nc5c(Cl)cccc5s4)cc3CC[C@@H]12

Response given:
1: 245 to 256 °C; 2: 116 to 117 °C; 3: 207 to 209 °C

* * *

Field: melting point. Provide a value for each of the compounds that follow.

Field: example entries. Status: answers known.
Challenge: Item under review: Cc1cc(-c2nnn(C)n2)cc(C)c1OCCCCc1nccn1C . Reported melting point?
Response given: 100 to 102 °C

Challenge: Item under review: Cc1nnc(COc2ccc(Oc3ccccc3)cc2)o1 . Reported melting point?
Response given: 78 to 79 °C

Challenge: Item under review: COc1ccc(C2CNC(=O)N2C(C)c2ccccc2)cc1OC1CC2CCC1C2 (stereo unspecified) . Reported melting point?
Response given: 151 to 154 °C

Provide each entry's melting point from the list below.
1. CC1(C)SC(=S)N(Cc2cccs2)C(=O)C1NC(=O)c1ccc(Cl)cc1 (stereo unspecified)
2. COc1ccc(S(=O)(=O)N(CCNC(C)=O)c2ccc(C)cc2Cc2c(F)cccc2F)cc1OC
3. CC(C)(C)N1CC2(CCN(Cc3ccccc3)CC2)OC1=O

Response given:
1. 176 to 177 °C
2. 79.7 °C
3. 110 to 112 °C

Provide each entry's melting point from the list below.
1. CC(C)n1nc(-c2ccc(O)cc2O)c2cccc(C(F)(F)F)c21
2. Cc1cc([C@@H](O)[C@@H](C)N2CCC(O)(c3ccc(C(F)(F)F)cc3)CC2)cc(C)c1O[Si](C(C)C)(C(C)C)C(C)C (relative stereo)
3. CCC(CC)c1ccc(Cl)c2nc3n(c12)CCCCN3c1ccc(C)cc1Br

Response given:
["61 to 63 °C", "177 to 178 °C", "152 to 155 °C"]

Provide each entry's melting point from the list below.
1. CC(C)n1nc(-c2sc(NC(=O)c3ccc(CNCCCN(C)C)cc3)nc2-c2ccccc2)ccc1=O
2. Cc1ccc2nc(SCCN(C)C)[nH]c2c1

Response given:
["108 to 110 °C", "103 °C"]
